Each recorded value in this set is attributed to ChEMBL document CHEMBL1153936.

System: Glutamate NMDA receptor
Test Description: Antagonist activity against NMDA receptor in rat cerebellar granule neurons assessed as inhibition of NMDA -induced increase in intracellular calcium level by Fura-2 AM dye based fluorimetry
Item-by-item account of pIC50
FYI, pIC50 means -log10 of a concentration in mol per litre.

Please review the following examples before continuing.
>  <Smiles String>
NC12CC3CC(C1)CC(c1ccccc1)(C3)O2

>  <System>
Glutamate NMDA receptor

>  <Recorded Number>
3.65

$$$$
>  <Smiles String>
NC12CC3CC(C1)CC(C1CCCCC1)(C3)O2

>  <System>
Glutamate NMDA receptor

>  <Recorded Number>
4.03

$$$$

Note down pIC50 recorded for `CCC12CC3CC(C1)CC(NC)(C3)O2`
4.49
